Source listed as PubChem BioAssay (NCI).

The reader will find reported TGI values listed item by item below.
- System: M14 melanoma
- testDetails: NCI tumour cell line growth inhibition, 48 h

{"columns": ["molecule", "TGI"],
 "data": [
  ["COc1cc(O)c2c(=O)c(OC)c(-c3ccc4c(c3)OCO4)oc2c1OC", "> 50 µM"],
  ["COc1ccc2c(c1)CCc1[nH]nc(-c3cc(OC)c(OC)c(OC)c3)c1-2", "10.9 µM"],
  ["C[C@]12CC[C@H](O)CC1=CC[C@@H]1[C@@H]2CC[C@]2(C)c3nc(Cl)ccc3C[C@@H]12", "> 100 µM"],
  ["COc1ccc(-c2nnc(-c3c(C)n(C)n(-c4ccccc4)c3=O)o2)cc1", "> 100 µM"],
  ["Cc1cc2c(c(C(=O)NCCC(=O)N[C@@H](C)C(=O)OCc3ccccc3)c1)Oc1c(cc(C)cc1C(=O)NCCC(=O)N[C@@H](C)C(=O)OCc1ccccc1)S2", "> 100 µM"],
  ["NNC(=O)CCC(NS(=O)(=O)c1ccc(Cl)cc1)C(=O)NN (stereo unspecified)", "> 100 µM"],
  ["COP(=O)(OC)c1ccc(NCc2cc(O)ccc2O)cc1", "> 61.1 µM"],
  ["COc1ccc(/C=N/n2cnc3c(c2=O)S/C(=C2/SC(=S)N(c4ccc(C)cc4)C2=O)N3c2ccccc2)cc1", "> 100 µM"],
  ["Cc1ccc(C(=O)C2=CN=C3C(=O)N(c4ccccc4)N(C)C3(C)C2=N)cc1 (stereo unspecified)", "> 100 µM"],
  ["Cn1cc(-c2nc(-c3c[nH]c4ccncc34)cs2)c2cc(F)ccc21", "3.37 µM"],
  ["COc1cc(C2c3cc4c(cc3OC3(OC)COC(=O)C23)OCO4)cc(OC)c1OC (stereo unspecified)", "8.43 µM"],
  ["c1cncc(-c2nc3ccccc3s2)c1", "> 100 µM"],
  ["O=C(Nc1ccc2[nH]c(C(=O)N3CC(CCl)c4c3cc([N+](=O)[O-])c3ccccc43)cc2c1)c1cc2ccccc2o1 (stereo unspecified)", "> 1100 µM"],
  ["Cc1ccc(C(=O)N2CCN(C(=O)c3ccc(C)cc3)c3ccccc32)cc1", "> 100 µM"],
  ["CC(C)(O)[C@@H]1CC[C@@]2(C)CCC[C@H](O)[C@H]2C1", "> 100 µM"],
  ["COc1cc(/C=C2\\N=C(C)N(n3c(-c4ccccc4)nc4ccccc4c3=O)C2=O)cc(OC)c1OC", "> 100 µM"],
  ["NC(=O)c1ncn2c(=O)n(CCl)nnc12", "> 100 µM"],
  ["COc1ccc(S(=O)(=O)Nc2ccc(-c3csc(N4C(=O)/C(=C/c5ccccc5)N=C4c4ccccc4)n3)cc2)cc1Cl", "71.9 µM"],
  ["CCCCCCCC(=O)OCC1OC(n2cc(F)c(=O)[nH]c2=O)C(NC(=O)OCc2ccccc2)C(O)C1O (stereo unspecified)", "> 100 µM"],
  ["O=C(O)C(C(=O)C(=O)C(C(=O)O)c1ccc(Cl)cc1)c1ccc(Cl)cc1 (stereo unspecified)", "16.4 µM"],
  ["Nc1nc(NC2C=C(CO)C(O)C2O)c([N+](=O)[O-])c(=O)[nH]1 (stereo unspecified)", "> 100 µM"],
  ["COc1ccc(SC2c3ccc(C)cc3Oc3nc(N)c(C#N)c(N)c32)cc1 (stereo unspecified)", "3.41 µM"],
  ["O=[P+](O)c1cc2ccccc2c2ccccc12", "> 100 µM"],
  ["COC(=O)[C@@]1(O)CC(C)C=C1C=O (stereo partly specified)", "> 100 µM"],
  ["CC(C)=CCCC1(Sc2ccccc2)C(=O)OCC1C=C(C)C (stereo unspecified)", "52.1 µM"],
  ["NC(=O)CCC(NC(=O)c1cccc2c(=O)c3ccccc3[nH]c12)C(=O)O (stereo unspecified)", "> 100 µM"],
  ["O=C(NN1C(=O)CSC1c1ccco1)c1ccncc1 (stereo unspecified)", "> 100 µM"],
  ["COc1ccc(-c2cn(-c3cccc(C(=O)/C=C/c4ccc(O)c(OC)c4)c3)c(=O)[nH]2)cc1", "40.5 µM"],
  ["Cc1oncc1NC1=CC(=O)C(=O)c2ccccc21", "17 µM"],
  ["CC(=O)OC(C)(C)/C=C/C(=O)[C@](C)(O)[C@H]1[C@H](O)C[C@@]2(C)[C@@H]3CC=C4[C@@H](C[C@H](O)C(=O)C4(C)C)[C@]3(CO)C(=O)C[C@]12C", "4.12 µM"],
  ["COc1cc(C=O)c(-c2cc3c(cc2C2(C)OCCS2)OCO3)c(OC)c1OC (stereo unspecified)", "16.1 µM"],
  ["COc1ccc(CCNC(=O)CCCCCO)cc1OC", "> 100 µM"],
  ["CCC/C(Cl)=N\\OC(=O)Nc1ccc(F)c([N+](=O)[O-])c1", "30.4 µM"],
  ["COc1ccc(OC)c(NCC#N)c1", "> 100 µM"],
  ["CCOC(=O)C1C[C@H]2CO[C@H](c3ccccc3)N2C1=O (stereo partly specified)", "> 100 µM"],
  ["Cc1ccc(C(=O)N2c3ccccc3N(C)n3cccc3C2CC(=O)O)cc1 (stereo unspecified)", "> 100 µM"],
  ["C/C(CC(=O)Nc1ccc(Cl)cc1)=N\\NC(=O)C[n+]1ccccc1", "> 100 µM"],
  ["Clc1cc(OCC23CC4CC(CC(C4)C2)C3)nc(OCC23CC4CC(CC(C4)C2)C3)n1", "> 100 µM"],
  ["CCCCN=C(NC#N)N(Cc1ccccc1)Cc1ccccc1", "53.3 µM"],
  ["CN(C)CCCNc1cnc2cc3ccccc3cc2n1", "50.5 µM"],
  ["O=c1cc(-c2ccccc2)[nH]c2c(Cl)cccc12", "> 100 µM"]
]}

====

- Test system: SF-539 CNS
- testDetails: NCI tumour cell line growth inhibition, 48 h; in the data active = GI50 below about 0.43 µM; inactive = the rest
Classes used: YES (active), NO (inactive)

{"columns": ["molecule", "groupLabel"],
 "data": [
  ["COc1ccc(SC2c3ccc(C)cc3Oc3nc(N)c(C#N)c(N)c32)cc1 (centres undefined)", "NO"],
  ["CC1(C)CCC[C@]2(C)c3cc(O)ccc3CC[C@@H]12", "NO"],
  ["CN1CCN(C(=O)c2c(NC(=O)NS(=O)(=O)c3ccccc3)sc3c2CCCCC3)CC1", "NO"],
  ["CC(C)[NH-].CC(C)[NH-].O.O.[Cl][Pt+2][Cl]", "NO"],
  ["CN[C@@H]1C[C@H]2O[C@@](C)([C@@H]1OC)n1c3ccccc3c3c4c(c5c6ccccc6n2c5c31)C(=O)N[C@H]4O", "YES"],
  ["COc1cc(F)cc([C@@H](CO)NC(=O)[C@@H](C)N2Cc3ccc(-c4nc(NC5CCOCC5)ncc4Cl)cc3C2=O)c1", "NO"],
  ["O=C1NC(=O)C(c2ccc(Cl)cc2)=C1Nc1ccc(Cl)c(C(=O)O)c1", "NO"],
  ["Cc1ccc(C(=O)/C(=C\\c2ccc([N+](=O)[O-])cc2)S(=O)Cc2ccc(F)cc2)cc1 (centres undefined)", "NO"],
  ["c1ccc(Nn2c(CCCCCCCCc3nnc(COc4ccccc4)n3Nc3ccccc3)nnc2COc2ccccc2)cc1", "NO"]
]}

====

- Test system: EKVX NSCLC
- testDetails: NCI tumour cell line growth inhibition, 48 h

{"columns": ["compound", "TGI"],
 "data": [
  ["COc1ccc2c(c1)CC1(O)COc3cc(OC)ccc3C1O2 (stereo unspecified)", "> 100 µM"],
  ["O=C(NC12CC3CC(CC(C3)C1)C2)C(=O)c1c[nH]c2ccc([N+](=O)[O-])cc12", "> 100 µM"],
  ["CC(=O)NC(C)c1ccc(N=NN2CCCC2)cc1 (stereo unspecified)", "> 100 µM"],
  ["CCCCCCCCC(O)C#CC(N)=O (stereo unspecified)", "23.6 µM"],
  ["Clc1ccc2nc(CC3CCCC3)[nH]c2c1", "43.5 µM"],
  ["CCCCCCCCCCCCCCCCCCOc1ccc(/C=C/C2=[N+](CCCl)CCO2)cc1", "> 100 µM"]
]}

====

The reader will find reported TGI values listed item by item below.
- System: 786-0 renal
- testDetails: NCI tumour cell line growth inhibition, 48 h

{"columns": ["compound", "TGI"],
 "data": [
  ["c1ccc(Nn2c(CCCCCCCCc3nnc(COc4ccccc4)n3Nc3ccccc3)nnc2COc2ccccc2)cc1", "> 300 µM"],
  ["COc1ccc(N2C(N)=C(C#N)C(C#N)(C#N)C2c2cccc([N+](=O)[O-])c2)cc1 (stereo not given)", "29.1 µM"],
  ["CCOC(=O)[C@H]1CSC[C@@H](C(=O)OC)N1", "> 100 µM"],
  ["CCCC(=O)Nc1cc(/C=C/C(=O)N2CC(CCl)c3c2cc([N+](=O)[O-])c2ccccc32)n(C)c1 (stereo not given)", "> 100 µM"],
  ["O=C(Cc1ccccc1)N=Nc1c(O)[nH]c2ccccc12", "> 100 µM"]
]}
